Every entry's value here was drawn from ChEMBL document CHEMBL1139939.

Please provide measured pIC50 for the entries that follow.
system: HT-29; assay: Cytotoxicity against human HT29 cells; assay type: functional, cell-based
pIC50: −log10 of the molar value.

// query Please give the measured pIC50 for this molecule: COc1ccc(C(=O)c2ccc3ccccc3c2)c(OC)c1OC
// result < 5.00

// query Then this molecule: COc1ccc(C(O)c2ccc3ccccc3c2)c(OC)c1OC (stereo unspecified)
// result < 5.00

// query Request: COc1cc(/C=C\c2ccc3ccccc3c2)cc(OC)c1OC
// result 7.70

// query Also need COc1ccc(/C=C\c2cc(OC)c(OC)c(OC)c2)cc1O , thanks.
// result 8.52

// query Proceed to COc1cc(C(OC(C)=O)c2ccc3ccccc3c2)cc(OC)c1OC (stereo unspecified)
// result < 5.00

// query And what about the molecule COc1ccc(C(OC(C)=O)c2ccc3ccccc3c2)c(OC)c1OC (stereo unspecified) ?
// result < 5.00

----------
Task for the reader: assign each of the following compounds its reported pIC50.
test system: HeLa; experiment: Cytotoxicity against human HeLa cells; assay type: functional, cell-based
Just the number, please; pIC50 means minus log10 of the concentration in mol/L.

// query Recorded pIC50 of COc1ccc(C(OC(C)=O)c2ccc3ccccc3c2)c(OC)c1OC (stereo unspecified) , please.
// result 5.57

// query Next up: COc1cc(C(=O)c2ccc3ccccc3c2)cc(OC)c1OC
// result 7.38

// query Input COc1cc(/C=C\c2ccc3ccccc3c2)cc(OC)c1OC [NAPHTHYLCOMBRETASTATIN]
// result 7.70

// query Same read-out for COc1cc(C(OC(C)=O)c2ccc3ccccc3c2)cc(OC)c1OC (stereo unspecified) ?
// result 5.42

// query Now try COc1ccc(C(=O)c2ccc3ccccc3c2)c(OC)c1OC .
// result 5.77
